target: Phenylethanolamine N-methyltransferase (Homo sapiens); experiment: Primary Screen for Target Class Profiling of Small Molecule Inhibitors of Methyltransferases; details: purified enzyme, MTase-Glo SAH luminescence; measured here: PNMT inhibition; at 40 µM; stronger effect = lower value; note: % is set by controls: 0 for no effect and ±100 for the full control effect
Among all 25,000 compounds or so, about 970 (3.9%) were called active. Another 8% or so got no clear call; they are omitted. The entries come from a sample that favours actives as a whole.
For each of the compounds below, state its activity change, negative = inhibition.
Numbers only, in %.

Compound	Reported
COC(=O)c1ncn2c1C(=O)N(Cc1cc(OC)ccc1OC)C(C)(C(=O)NCc1ccccc1)C2 (configuration not stated)	-4.82
CC(C)(C)c1ccc(C(=O)Nc2cc(Cl)c(Br)cc2C(=O)O)cc1	-27.1
Cc1cc2c(cc1S(=O)(=O)NCc1ccc3c(c1)OCO3)n(C)c(=O)n2C	6.83
CCOc1ccccc1CN1C(=O)c2ccc(-c3ccco3)n2CC1(C)C(=O)NC1CCCCC1 (configuration not stated)	0.061
O=C(N[C@@H]1CN(c2ccncn2)C[C@H]1CO)C1CCCC1	-3.66
Cc1cccc(NC(=O)CSc2nnc3n(CC(C)C)c(=O)c4ccc(C(=O)NC(C)C)cc4n23)c1	1.77
CC(=O)c1cnc2ccc(-c3cc(Cl)c(O)c(Cl)c3)nc2c1NC1CCC(CN(C)C)CC1 (configuration not stated)	0.349
COc1c(C)c(OCC=C(C)C)cc2c1C(=O)NC2=O	-15.7

Can you give me activity change, negative = inhibition for all of these, one by one?
1. COc1cc2ncnc(Nc3cccc(Cl)c3F)c2cc1OC(=O)N1CCN(C)C[C@H]1C
2. CC(C)n1c(=O)c2ccc(C(=O)NC3CCCCC3)cc2n2c(=O)n(CC(=O)NC3CCCCC3)nc12

[-15.1, -1.89]

Can you give me activity change, negative = inhibition for all of these, one by one?
1. COc1cc(C)c(C(=O)Oc2cc(C)c(C(=O)Oc3cc(C)c(C(=O)NC(C)C(=O)O)c(O)c3)c(O[C@@H]3O[C@H](CO)[C@@H](O)[C@H](O)[C@H]3OC(C)=O)c2)c(OC)c1 (some centres not stated)
2. CNC(=O)c1ccccc1Nc1nc(Nc2ccc(N3CCOCC3)cc2OC)ncc1Cl
3. Cc1ccc(Cn2c(=O)c3ccccc3n3c(CCC(=O)NCc4ccc5c(c4)OCO5)nnc23)cc1
4. CCCS(=O)(=O)N1CCCC(Cc2noc(-c3cnccn3)n2)C1 (configuration not stated)
5. Cn1nccc1C(=O)NC1CCCN(c2cc(N3CCCC3)ncn2)C1 (configuration not stated)
6. CCc1cccc(NC(=O)Cn2c(=O)oc3cc(S(=O)(=O)N4CCC(C)CC4)ccc32)c1
7. COc1ccc(CNc2nc3c(S(=O)(=O)c4ccc(C)cc4)nnn3c3ccccc23)cc1

-0.399
-6.85
-7.16
-4.02
-11.9
-14.1
-4.71

Can you give me activity change, negative = inhibition for all of these, one by one?
1. Cc1cc2c(cc3n2CC(C)(C(=O)NC2CCCCCC2)N(Cc2cccs2)C3=O)o1 (configuration not stated)
2. CCCN1C(=O)c2c(C(=O)NCc3ccc(OC(C)C)cc3)ncn2CC1(C)C(=O)NCc1ccccc1 (configuration not stated)
3. COCCn1c(=O)c(C(=O)N2CCN(C(C)=O)CC2)nc2cccnc21
4. CCCNC(=O)Cn1ccc2cc(S(=O)(=O)N3CCCCC3)ccc21
5. COc1cccc(C(=O)N(CC(C)C)CC2CN(C(=O)Nc3ccccc3)CCO2)c1 (configuration not stated)

-2.94
8.93
-5.78
4.01
0.149

Can you give me activity change, negative = inhibition for all of these, one by one?
1. Nc1ccc2c3c(cccc13)C(=O)NC2=O
2. CC1(C=O)CC[C@]2(C(=O)O[C@@H]3O[C@H](CO)[C@@H](O)[C@H](O)[C@H]3O)CC[C@]3(C)C(=CCC4[C@@]5(C)C[C@H](O)[C@H](O[C@@H]6OC[C@@H](O)[C@H](O)[C@H]6O)[C@@](C)(CO)C5CC[C@]43C)C2C1 (some centres not stated)
3. CN1C(=O)c2cc(C(=O)NCCc3cccs3)nn2CC1(C)C(=O)NCc1ccc(F)cc1 (configuration not stated)
4. CC[C@@H](c1ccc(F)c(F)c1)n1c(C(=O)OC)c(-c2ccno2)[nH]c1=S
5. COc1cc(O)c(C(=O)CCc2ccc(O)cc2)c(O[C@@H]2O[C@H](CO)[C@@H](O)[C@H](O)[C@H]2O)c1
6. CCNc1ccnc(N2C[C@H]3CN(C(=O)N(C)C)C[C@@]3(C(=O)O)C2)n1

1. -8.01
2. 2.58
3. 3.02
4. -1.86
5. -1.39
6. -1

Can you give me activity change, negative = inhibition for all of these, one by one?
1. C=C(C)Cn1c(=O)[nH]c2ccccc21
2. O=C(NCc1ccc2c(c1)OCO2)c1sc(=S)n2c1[nH]c(=O)c1ccccc12
3. CC(C)(C)c1ccc(S(=O)(=O)NCc2ccc(C(=O)Nc3cccnc3)cc2)cc1
4. COc1ccccc1NC(=O)CSc1nnc2[nH]c(=O)c(C(C)(C)C)nn12
5. O=S(=O)(c1ccc2[nH]c3c(c2c1)CCCC3)N1CCN(Cc2ccccc2)CC1

[4.12, -28.2, -7.18, -8.39, 4.34]

Can you give me activity change, negative = inhibition for all of these, one by one?
1. CCNC(=O)N1CC[C@H]2CC(=O)N(Cc3cccnc3)CC[C@H]2C1
2. CCc1ccc(S(=O)(=O)c2nnn3c2nc(N2CCCCC2)c2ccccc23)cc1
3. CCOc1ccc(CN2C(=O)c3cc(C(C)(C)C)nn3CC2(C)C(=O)NC2CCCCCC2)cc1 (configuration not stated)
4. CCOc1ccc(N2C(=O)c3cc(-c4ccc(OC)cc4)nn3CC2(C)C(=O)NCc2ccccc2OC)cc1 (configuration not stated)

1. -11.5
2. -1.25
3. -3.09
4. 0.163
